Below, each entry is listed alongside its reported pKi.
testSystem: D2 dopamine receptors (Rattus norvegicus, UniProt P61169)
Sequence (P61169 whole entry): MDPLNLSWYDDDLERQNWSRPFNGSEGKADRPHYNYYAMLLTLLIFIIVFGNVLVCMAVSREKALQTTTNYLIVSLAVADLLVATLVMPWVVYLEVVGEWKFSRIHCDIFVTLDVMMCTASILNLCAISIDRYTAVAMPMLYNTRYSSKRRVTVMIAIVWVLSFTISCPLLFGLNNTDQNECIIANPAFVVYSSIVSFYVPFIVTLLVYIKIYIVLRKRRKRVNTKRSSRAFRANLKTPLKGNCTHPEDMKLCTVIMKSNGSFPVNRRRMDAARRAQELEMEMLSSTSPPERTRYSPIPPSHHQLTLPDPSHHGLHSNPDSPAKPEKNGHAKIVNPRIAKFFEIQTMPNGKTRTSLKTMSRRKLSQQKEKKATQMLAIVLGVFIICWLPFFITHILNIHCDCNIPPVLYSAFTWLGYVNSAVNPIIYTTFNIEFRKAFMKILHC
testName: inhibition of tritiated (S)-sulpiride binding to D2 dopamine receptors in vitro
condition: rat striatum, tritiated (S)-sulpiride 1 nM, 4° C., 40 min
Scale for pKi: -log10 of concentration given in mol/L; no unit attached.

Below are worked cases with known answers.
querySmiles	observed
Cn1c(N)c(CN2CCN(c3cccc4ccoc34)CC2)c(=O)n1-c1ccccc1	6.75
CC(C)Oc1ccccc1N1CCN(Cc2c(C3CCC3)nn(C)c2N)CC1	7.60
C=CCn1c(C)nn(CCN2CCN(c3ccccc3OC)CC2)c1=O	6.51

GET pKi where system = D2 dopamine receptors (Rattus norvegicus, UniProt P61169) and item = C=CCn1c(-c2cccnc2)nn(CCCCN2CCN(c3ccccc3OC)CC2)c1=O 7.32
